assay type: in vivo, human; settings: human, plasma, oral, Tmax (median (IQR)), phase B: regorafenib + esomeprazole concomitant
MEASUREMENT_NAME: Tmax (h)

1. CNC(=O)c1cc(Oc2ccc(NC(=O)Nc3ccc(Cl)c(C(F)(F)F)c3)c(F)c2)ccn1 : 2.5

====

type: in vivo, human; settings: human, plasma, oral, 120 mg, Tmax (median (IQR)), phase A: regorafenib alone, 120 mg at steady state
MEASUREMENT_NAME: Tmax (h)

1. CNC(=O)c1cc(Oc2ccc(NC(=O)Nc3ccc(Cl)c(C(F)(F)F)c3)c(F)c2)ccn1 : 2.5

====

format: in vivo, human; settings: human, plasma, oral, Tmax (median (IQR)), phase C: regorafenib + esomeprazole 3 hours prior
MEASUREMENT_NAME: Tmax

1) CNC(=O)c1cc(Oc2ccc(NC(=O)Nc3ccc(Cl)c(C(F)(F)F)c3)c(F)c2)ccn1 : 3 h
